Biological target: T1, ExoI Asp319Ala variant (Escherichia coli, UniProt P04995 1-475)
T1 construct: also called D319A; Asp319 variant
T1 sequence: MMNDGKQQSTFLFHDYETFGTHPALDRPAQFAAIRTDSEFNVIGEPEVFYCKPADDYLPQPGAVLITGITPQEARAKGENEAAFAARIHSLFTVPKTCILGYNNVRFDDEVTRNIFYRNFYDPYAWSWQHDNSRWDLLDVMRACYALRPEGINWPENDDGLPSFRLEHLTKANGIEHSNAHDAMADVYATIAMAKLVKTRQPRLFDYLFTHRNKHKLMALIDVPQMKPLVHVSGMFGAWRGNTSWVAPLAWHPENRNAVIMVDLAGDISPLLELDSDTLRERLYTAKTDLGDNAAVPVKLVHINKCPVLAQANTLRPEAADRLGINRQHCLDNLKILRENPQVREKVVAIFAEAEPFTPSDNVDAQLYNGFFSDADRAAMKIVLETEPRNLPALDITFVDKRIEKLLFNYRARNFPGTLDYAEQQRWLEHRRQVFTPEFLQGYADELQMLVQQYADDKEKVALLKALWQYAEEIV
Assay: fluorescence anisotropy equilibrium binding (Kd,app), ExoI variant titrated into fluorescein-labeled peptide
pKd: −log10 of the molar value. Where no end group is shown, it is not given here. fluorescein = fluorescein moiety attached to the N-terminus of the peptide (N-terminal fluorescein label)

# Binder, pKd
rows = [
    ("fluorescein-WMDFDDDIPF (also called F-SSB-Ct; F-WT) [fluorescein-labeled SSB C-terminal peptide (fluorescein-WMDFDDDIPF)]", 6.52),
]
